Target: T1, Brr2^C-Sec63 pre-incubated with FBP21^116–376 (human | , UniProt O75643 1840-2136; O75554 116-376)
T1 sequence (looked up) 1: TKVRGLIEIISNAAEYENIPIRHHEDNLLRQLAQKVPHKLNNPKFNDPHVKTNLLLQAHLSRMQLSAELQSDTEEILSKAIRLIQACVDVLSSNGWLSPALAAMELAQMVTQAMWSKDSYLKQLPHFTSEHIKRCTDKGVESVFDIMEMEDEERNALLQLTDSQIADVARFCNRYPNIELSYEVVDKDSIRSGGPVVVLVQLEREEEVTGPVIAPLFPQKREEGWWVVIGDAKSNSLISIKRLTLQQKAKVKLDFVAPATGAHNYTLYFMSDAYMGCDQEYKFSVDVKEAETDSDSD
T1 sequence (looked up) 2: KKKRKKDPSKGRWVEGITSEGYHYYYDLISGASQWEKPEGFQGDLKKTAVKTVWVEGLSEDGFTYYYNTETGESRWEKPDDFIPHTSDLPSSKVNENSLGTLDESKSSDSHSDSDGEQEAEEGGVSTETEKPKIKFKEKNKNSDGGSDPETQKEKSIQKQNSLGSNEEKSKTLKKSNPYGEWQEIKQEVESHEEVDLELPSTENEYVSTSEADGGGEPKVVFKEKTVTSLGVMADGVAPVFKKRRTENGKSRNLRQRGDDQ
Experiment: ITC
test-readout: Kd (µM)
One number for each entry, in µM.

Entry under review: GTPMGMPPPGMRPPPPGMRGLL [SmB-derived peptide] . Reported Kd?
14
